assay: clinical; settings: human, plasma, oral, 2 mg, Cmax, Mean (±SD), Mild (n = 6); dose normalized to 2 mg

Smiles Entry: CC(=O)Nc1cccc(-n2c(=O)n(C3CC3)c(=O)c3c(Nc4ccc(I)cc4F)n(C)c(=O)c(C)c32)c1
Cmax [ng/mL]: 29.5

---

test: clinical; conditions: human, plasma, oral, 2 mg, AUC0 − 24, Geo mean (%CV), Sev (n = 3); dose normalized to 2 mg
Measured Endpoint: AUC(0-t) (ng·h/mL)

Smiles Entry: CC(=O)Nc1cccc(-n2c(=O)n(C3CC3)c(=O)c3c(Nc4ccc(I)cc4F)n(C)c(=O)c(C)c32)c1
Val: 229

---

assay: clinical; settings: human, in vivo, 2 mg

Smiles Entry: CC(=O)Nc1cccc(-n2c(=O)n(C3CC3)c(=O)c3c(Nc4ccc(I)cc4F)n(C)c(=O)c(C)c32)c1
Measure Unit: ng/mL
Cmax: 27.6

---

experiment: clinical; conditions: human, plasma, oral, 2 mg, AUC0 − 24, Mean (±SD), Norm (n = 10); dose normalized to 2 mg

Smiles Entry: CC(=O)Nc1cccc(-n2c(=O)n(C3CC3)c(=O)c3c(Nc4ccc(I)cc4F)n(C)c(=O)c(C)c32)c1
Measure Unit: ng·h/mL
AUC(0-t): 469

---

test: clinical; settings: human, plasma, oral, 2 mg, AUC0 − 24, Mean (±SD), Mild (n = 6); dose normalized to 2 mg

Smiles Entry: CC(=O)Nc1cccc(-n2c(=O)n(C3CC3)c(=O)c3c(Nc4ccc(I)cc4F)n(C)c(=O)c(C)c32)c1
AUC(0-t) (ng·h/mL): 388

---

assay: clinical; conditions: human, plasma, oral, 2 mg, Cmax, Geo mean (%CV), Mild (n = 6); dose normalized to 2 mg
Measured Endpoint: Cmax (ng/mL)

Smiles Entry: CC(=O)Nc1cccc(-n2c(=O)n(C3CC3)c(=O)c3c(Nc4ccc(I)cc4F)n(C)c(=O)c(C)c32)c1
Measured Endpoint: Cmax
Val: 26.2

---

assay: clinical; conditions: human, plasma, oral, 2 mg, AUC0 − 24, Geo mean (%CV), Mod (n = 3); dose normalized to 2 mg

Smiles Entry: CC(=O)Nc1cccc(-n2c(=O)n(C3CC3)c(=O)c3c(Nc4ccc(I)cc4F)n(C)c(=O)c(C)c32)c1
AUC(0-t) [ng·h/mL]: 311

---

experiment: clinical; conditions: human, plasma, oral, 2 mg, Cmax, Geo mean (%CV), Sev (n = 3); dose normalized to 2 mg
Measured Endpoint: Cmax (ng/mL)

Smiles Entry: CC(=O)Nc1cccc(-n2c(=O)n(C3CC3)c(=O)c3c(Nc4ccc(I)cc4F)n(C)c(=O)c(C)c32)c1
Measure Unit: ng/mL
Val: 15.3

---

assay: clinical; conditions: human, plasma, oral, 2 mg, Cmax, Geo mean (%CV), Mod (n = 3); dose normalized to 2 mg
Measured Endpoint: Cmax (ng/mL)

Compound: CC(=O)Nc1cccc(-n2c(=O)n(C3CC3)c(=O)c3c(Nc4ccc(I)cc4F)n(C)c(=O)c(C)c32)c1 [Trametinib]
Val: 16.8

---

assay: clinical; conditions: human, plasma, oral, 2 mg, AUC0 − 24, Mean (±SD), Mod (n = 3); dose normalized to 2 mg

Smiles Entry: CC(=O)Nc1cccc(-n2c(=O)n(C3CC3)c(=O)c3c(Nc4ccc(I)cc4F)n(C)c(=O)c(C)c32)c1
AUC(0-t) [ng·h/mL]: 312
